- Method summary: amyloid nucleation score (Sup35N fusion, yeast selection) (log enrichment); library NNK3; higher = more nucleation; inactive = no reads after selection;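 further: zero at mode of non-aggregating sequences after 7 days selection at 30°C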
Parameter: amyloid nucleation score

// solved cases for amyloid nucleation score follow
> print(dat)
               substance  test.value
 1  NMRCSIHARGSRHGVRDDTQ    inactive
 2      CQCMSFIRTNSYKDFT    inactive
 3  CSRPVVLIKGLLWAFRRWAY    inactive
 4  LSASGYQSCSNVMMSTHVSN    inactive
 5  LLGCAYTGSTFHGNVGSFVL    inactive
 6  RTPHELKFRCSFQKVWQGMV    inactive
 7  VTSVRPIYSRCLLNYMLRSV    inactive
 8  VLFAKRLDLTCVFLFIGRVW    inactive
 9  NIVERGSDLRGLCKTFNDIA    inactive
10   FIQYEHNLPGTARGKCIQC    inactive

Qu. If you can, please state the reported amyloid nucleation score value of `LLIDNVCSNIARVMHKVWLW` .
Ans. inactive

Qu. If you can, please state the reported amyloid nucleation score value of `YKTRTKKVS` .
Ans. inactive

Qu. If you can, please state the reported amyloid nucleation score value of `TYMPAVIIYRVLQAMTAAHH` .
Ans. inactive

Qu. If you can, please state the reported amyloid nucleation score value of `DRHCLSL` .
Ans. 0.582

Qu. If you can, please state the reported amyloid nucleation score value of `KNLDKLVKMYH` .
Ans. inactive

Qu. If you can, please state the reported amyloid nucleation score value of `VGNLCVLKGTTIMFGIMGST` .
Ans. 1.18

Qu. If you can, please state the reported amyloid nucleation score value of `HLLTLTI` .
Ans. 0.501

Qu. If you can, please state the reported amyloid nucleation score value of `RFTRMWTDWCAGLSGSLRCS` .
Ans. inactive

Qu. If you can, please state the reported amyloid nucleation score value of `NSFYNWSSEKKL` .
Ans. inactive

Qu. If you can, please state the reported amyloid nucleation score value of `YEVPFSNASWRDGQMRCRCS` .
Ans. inactive

Qu. If you can, please state the reported amyloid nucleation score value of `VMCFYRLLNVIQWTTANVFG` .
Ans. inactive

Qu. If you can, please state the reported amyloid nucleation score value of `SSSTGAFGDSGGR` .
Ans. inactive

Qu. If you can, please state the reported amyloid nucleation score value of `SLRRKIGLLIFFDNLIF` .
Ans. inactive

Qu. If you can, please state the reported amyloid nucleation score value of `FMFVVWGYINGFGYLTGVN` .
Ans. inactive

Qu. If you can, please state the reported amyloid nucleation score value of `SHSWQLSYSKSRYVIDAIAR` .
Ans. inactive

Qu. If you can, please state the reported amyloid nucleation score value of `KIKSLELMYDISERNF` .
Ans. inactive

Qu. If you can, please state the reported amyloid nucleation score value of `SPFEFRCIVESEFCMKNWAG` .
Ans. 0.866

Qu. If you can, please state the reported amyloid nucleation score value of `RLQMRSATLYCEGGSGAILY` .
Ans. inactive

Qu. If you can, please state the reported amyloid nucleation score value of `GLKNRVSGPPFASTYFWSAL` .
Ans. inactive

Qu. If you can, please state the reported amyloid nucleation score value of `FFARSHAVIINFFCTH` .
Ans. 2.72

Origin of the recorded values: the supplement of paper PMC12042874
